# Test system: bovine pituitary cells
# METHOD_NOTES: GnRH-induced LH secretion of bovine pituitary cells in vitro (Example 9)
# Assay type: cell-based
# TEST_SETTINGS: challenged with 10 nM GnRH 30 minutes after 60 minutes preincubation; 300 μg cetrorelix, 340 μg Degarelix, 300 ug Abarelix, 130 μg Relugolix
Square brackets hold non-standard residues; d marks the D form. Peptide text beside a SMILES is read from it. * marks the point of attachment. dPhe(4-NHCONH2) = NC(=O)Nc1ccc(C[C@@H](N)C(=O)O)cc1; Dihydroorotyl(S) = O=C1C[C@@H](C(=O)*)NC(=O)N1; dPhe(4-Cl) = N[C@H](Cc1ccc(Cl)cc1)C(=O)O; Phe(4-NH2) = Nc1ccc(C[C@H](N)C(=O)O)cc1; d2Nal = N[C@H](Cc1ccc2ccccc2c1)C(=O)O; Lys(iPr) = CC(C)NCCCC[C@H](N)C(=O)O; NMeY = CN[C@@H](Cc1ccc(O)cc1)C(=O)O; dCit = NC(=O)NCCC[C@@H](N)C(=O)O; d3Pal = N[C@H](Cc1cccnc1)C(=O)O
Collected LH conc in medium values appear next to each entry.
Please respond with the number in mIU/mL and leave the unit unwritten.

Look over these answered cases.
CONC(=O)Nc1ccc(-c2sc3c(c2CN(C)C)c(=O)n(-c2ccc(OC)nn2)c(=O)n3Cc2c(F)cccc2F)cc1 [Relugolix]    1.47
CC(=O)N[C@H](Cc1ccc2ccccc2c1)C(=O)N[C@H](Cc1ccc(Cl)cc1)C(=O)N[C@H](Cc1cccnc1)C(=O)N[C@@H](CO)C(=O)N[C@@H](Cc1ccc(NC(=O)[C@@H]2CC(=O)NC(=O)N2)cc1)C(=O)N[C@H](Cc1ccc(NC(N)=O)cc1)C(=O)N[C@@H](CC(C)C)C(=O)N[C@@H](CCCCNC(C)C)C(=O)N1CCC[C@H]1C(=O)N[C@H](C)C(N)=O [Degarelix] (Ac-[d2Nal][dPhe(4-Cl)][d3Pal]S[Phe(4-NH2)](Dihydroorotyl(S))[dPhe(4-NHCONH2)]L[Lys(iPr)]P[dA]-NH2)    1.21
CC(=O)N[C@H](Cc1ccc2ccccc2c1)C(=O)N[C@H](Cc1ccc(Cl)cc1)C(=O)N[C@H](Cc1cccnc1)C(=O)N[C@@H](CO)C(=O)N(C)[C@@H](Cc1ccc(O)cc1)C(=O)N[C@H](CC(N)=O)C(=O)N[C@@H](CC(C)C)C(=O)N[C@@H](CCCCNC(C)C)C(=O)N1CCC[C@H]1C(=O)N[C@H](C)C(N)=O [Abarelix] (Ac-[d2Nal][dPhe(4-Cl)][d3Pal]S[NMeY][dN]L[Lys(iPr)]P[dA]-NH2)    2.15

Then this compound:
For the compound shown here, CC(=O)N[C@H](Cc1ccc2ccccc2c1)C(=O)N[C@H](Cc1ccc(Cl)cc1)C(=O)N[C@H](Cc1cccnc1)C(=O)N[C@@H](CO)C(=O)N[C@@H](Cc1ccc(O)cc1)C(=O)N[C@H](CCCNC(N)=O)C(=O)N[C@@H](CC(C)C)C(=O)N[C@@H](CCCNC(=N)N)C(=O)N1CCC[C@H]1C(=O)N[C@H](C)C(N)=O [Cetrorelix] (Ac-[d2Nal][dPhe(4-Cl)][d3Pal]SY[dCit]LRP[dA]-NH2) , give the reported LH conc in medium. 0.50
